Hello, the source for this data is patent US5407956A, in case you need it.

assayed_target: D2 receptor (Rattus norvegicus)
Sequence (P61169 whole entry): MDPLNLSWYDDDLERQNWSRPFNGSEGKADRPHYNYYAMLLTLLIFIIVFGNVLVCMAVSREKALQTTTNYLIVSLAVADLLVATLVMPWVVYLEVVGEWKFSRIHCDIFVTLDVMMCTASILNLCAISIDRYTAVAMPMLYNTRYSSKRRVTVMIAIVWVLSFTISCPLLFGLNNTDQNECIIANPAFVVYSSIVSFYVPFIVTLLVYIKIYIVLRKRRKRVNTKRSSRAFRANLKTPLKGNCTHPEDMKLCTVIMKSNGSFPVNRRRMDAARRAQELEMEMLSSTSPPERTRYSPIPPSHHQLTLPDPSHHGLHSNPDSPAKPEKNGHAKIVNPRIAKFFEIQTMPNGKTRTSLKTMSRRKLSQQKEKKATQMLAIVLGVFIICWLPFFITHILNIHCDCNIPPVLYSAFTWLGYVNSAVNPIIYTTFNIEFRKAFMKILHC
experiment: biochemical
particulars: [3H]-spiperone; rat striatal membranes; Table 2; read-out: Binding D2 rat striatum Ki
Description: The tissues were homogenized in 50 mM Tris/HCl buffer, pH 7.4 (1:100 weight/volume). The homogenate was centrifuged and the pellet was resuspended, centrifuged again and resuspended in 50 mM Tris/HCl buffer pH 7.4 containing 120 mM NaCl, 5mM KCl, 2mM CaCl2 and 1 mM MgCl2. […]
Structures can show the parent of a compound that is named as a salt.
readout: pKi
# pKi is unitless: minus log10 of the molar concentration; print number only

Please review the entries below; each comes with its answer.
{"columns": ["molecule", "pKi"],
 "data": [
  ["CCCN(CCCCCCN(C)CCOc1ccccc1OC)[C@H]1CCc2c(ccc(O)c2O)C1 [Compound 10]", 8.26],
  ["CCCCN(CCCCCCN(C)CCOc1ccccc1OC)[C@@H]1CCc2cc(O)c(O)cc2C1 [Compound 11, dihydrochloride]", 6.20],
  ["CCCCN(CCCCCCNCCOc1ccccc1Cl)[C@H]1CCc2c(ccc(O)c2O)C1 [Compound 4, dihydrochloride]", 7.10]
]}

Dear colleague, I am looking for the recorded pKi of the following molecule: CCCN(CCCCCCNCCOc1ccc(C)cc1Cl)[C@H]1CCc2c(ccc(O)c2O)C1 [Compound 5, dihydrochloride]
8.30

Dear colleague, I am looking for the recorded pKi of the following molecule: CCCN(CCCCCCNCCOc1ccccc1OC)[C@@H]1CCc2cc(O)c(O)cc2C1 [Compound 2, dihydrochloride]
8.08

Dear colleague, I am looking for the recorded pKi of the following molecule: CCCN(CCCNCCOc1ccccc1Cl)[C@@H]1CCc2cc(O)c(O)cc2C1 [Compound 8, dihydrochloride]
7.80

Dear colleague, I am looking for the recorded pKi of the following molecule: Oc1ccc(CCNCCCCCCNCCc2ccccc2)cc1O [Dopexamine, dopexamine, reference compound]
5.77

Dear colleague, I am looking for the recorded pKi of the following molecule: CCCN(CCCCCCN(C)CCOc1ccc(C)cc1Cl)[C@H]1CCc2c(ccc(O)c2O)C1 [Compound 12, dihydrochloride]
8.08

Dear colleague, I am looking for the recorded pKi of the following molecule: CCCCN(CCCNCCOc1ccc(C)cc1OC)[C@H]1CCc2c(ccc(O)c2O)C1 [Compound 9, dihydrochloride]
6.72

Dear colleague, I am looking for the recorded pKi of the following molecule: CCCN(CCCNCCOc1ccccc1OC)[C@H]1CCc2c(ccc(O)c2O)C1 [Compound 7, dihydrochloride]
8.96

Dear colleague, I am looking for the recorded pKi of the following molecule: CCCCN(CCCCCCNCCOc1ccccc1OC)[C@H]1CCc2c(ccc(O)c2O)C1 [Compound 3, dihydrochloride]
7.07

Dear colleague, I am looking for the recorded pKi of the following molecule: CCCN(CCCCCCNCCOc1ccccc1OC)[C@H]1CCc2c(ccc(O)c2O)C1 [Compound 1]
9.30

Dear colleague, I am looking for the recorded pKi of the following molecule: CCCN(CCCN(C)CCOc1ccccc1OC)[C@H]1CCc2c(ccc(O)c2O)C1 [Compound 13, dihydrochloride]
8.01

Dear colleague, I am looking for the recorded pKi of the following molecule: CCCCN(CCCN(C)CCOc1ccc(C)cc1Cl)[C@@H]1CCc2cc(O)c(O)cc2C1 [Compound 14, dihydrochloride]
6.59
